- procedure.details: solvent given as SMILES
- recorded.conditions: in CC#N
Classification field: Satisfied = absorption maximum at or over 400 nm; Not satisfied = absorption maximum under 400 nm.

| compound | assigned.class |
| --- | --- |
| CN(C)c1ccc(-n2c(-c3ccncc3)nc3nccnc32)cc1 | Not satisfied |
| CCCSc1ccc2n1[B-](F)(F)[N+]1=C(SC#N)C=CC1=C2c1ccccc1 | Satisfied |
| O=C1C=Cc2cc3ccccc3c(=O)n21 | Not satisfied |
| C[n+]1ccn(CCCCc2ccc3c(c2)c2ccccc2n3-c2cc(C#N)c(C#N)cc2F)c1 | Not satisfied |
| CCCCN1C(=S)c2cccc3cccc(c23)C1=S | Satisfied |
| COc1ccc(-c2cc(-c3ccc(C)cc3)nc3c(C#N)c(N4CCCC4)nc(N)c23)cc1 | Satisfied |
| c1ccc(-c2cc3c(oc4ccccc43)c(-c3ccccc3)[o+]2)cc1 | Not satisfied |
| Clc1ccc(/C=C/c2ccc(-c3nc4c5cccnc5c5ncccc5c4[nH]3)cc2)cc1 | Not satisfied |
| OC1(c2ccc(-c3cccs3)s2)CCC(c2ccccc2)CC1 (stereo unspecified) | Not satisfied |
| Cc1ccc(-n2c(C)ccc2C)cc1 | Not satisfied |
| COc1nc(Nc2cc3ccc4cccc5ccc(c2)c3c45)nc(OC)n1 | Not satisfied |
| O=S1(=O)C2=C(c3ccc(N(c4ccccc4)c4ccccc4)cc31)C1(C3=C(c4ccccc41)S(=O)(=O)c1cc(N(c4ccccc4)c4ccccc4)ccc13)c1ccccc12 | Satisfied |
| CN(C)c1ccc(-c2ccc(-c3nc(C#N)c(C#N)n3C)cc2)cc1 | Not satisfied |
| CCN(CC)c1ccc(-c2nc3cc(C(NC(=O)OC(C)(C)C)C(=O)OC)ccc3o2)c(O)c1 (stereo unspecified) | Not satisfied |
| COc1ccc(C#Cc2ccccc2C#Cc2ccc(OC)cc2)cc1 | Not satisfied |
| CC(C)=CC(=O)c1cc2c(cc1F)NC(C)(C)CC2=O | Not satisfied |
| C(=C\c1cccc2ccccc12)/c1ccc(-c2nnc(-c3ccc(-c4cc5ccccc5s4)cc3)o2)cc1 | Not satisfied |
| CC1=CC(C)=[N+]2C1=C(c1c3ccccc3c(-c3ccccc3)c3ccccc13)c1c(C)cc(C)n1[B-]2(F)F | Satisfied |
| CCC1=C(C)C2=Cc3cscc3B(O)N2C1=O | Not satisfied |
| CCCCCCCCOc1ccc(C2=C3C(C)=C(C#Cc4ccc(B(c5c(C)cc(C)cc5C)c5c(C)cc(C)cc5C)cc4)C(C)=[N+]3[B-](F)(F)n3c(C)c(C#Cc4ccc(B(c5c(C)cc(C)cc5C)c5c(C)cc(C)cc5C)cc4)c(C)c32)cc1 | Satisfied |
| Cc1cc(-c2ccccc2)cc(C)[o+]1 | Not satisfied |
| N#CSC1=CC2=C(c3ccccc3)c3cc(SC#N)c(N4CCOCC4)n3[B-](F)(F)[N+]2=C1N1CCOCC1 | Satisfied |
| CNc1cccc2c1C(=O)c1ccccc1-2 | Satisfied |
| CC(=O)c1ccc(/N=N/c2ccc(Nc3ccccc3)cc2)cc1 | Satisfied |
| O=C(N/N=C/c1ccccc1O)c1ccc([N+](=O)[O-])cc1 | Not satisfied |
| CCOC(=O)c1ccc2nc(N)sc2c1 | Not satisfied |
| COc1ccc2cc([C@H](C)C(=O)O)ccc2c1 | Not satisfied |
| COC(=O)C(NC(=O)OC(C)(C)C)c1ccc2oc(-c3cc(OC)c(OC)cc3OC)nc2c1 (stereo unspecified) | Not satisfied |
| CCCCCCc1ccc(-n2c3[n+](c4c5ccccc5c5ccccc5c42)[B-](C)(C)c2ccc4ccccc4c2-3)cc1 | Not satisfied |
| C=Cc1cc2cc3c(cc2oc1=O)OCO3 | Not satisfied |
| CCCCCCCC[n+]1ccc(-c2cc[n+](CCCCCCCC)cc2)cc1 | Not satisfied |
| Cc1ccc(C2=C3C=C(I)C=[N+]3[B-](F)(F)n3cccc32)cc1 | Satisfied |
| CC(C)(C)C1Nc2c(Cl)cc(Cl)cc2C(=O)N1Cc1ccccc1 (stereo unspecified) | Not satisfied |
| COc1ccc(-c2cc(-c3ccc(OC)cc3)c3c(N)nc(N4CCCC4)c(C#N)c3n2)cc1 | Satisfied |

* * *

- procedure.details: solvent given as SMILES
- recorded.conditions: in C1CCCCC1

| compound | absorption maximum / nm |
| --- | --- |
| CCCCCCCCCCCCC(CCCCCCCCCC)Cn1c2cc(/C=C/C=C(C#N)C#N)c3cccc4c5cccc6c(/C=C/C=C(C#N)C#N)cc1c(c65)c2c34 (stereo not given) | 638 |
| CCC1(CC)c2ccccc2-c2ccc(C#Cc3ccc4ccc5cccc6ccc3c4c56)cc21 | 401 |
| CCOC(=O)COc1ccc(C(c2c(C)[nH]c3ccccc23)c2c(C)[nH]c3ccccc23)cc1 | 291 |
| CCN(CC)c1ccc(/C=C/C2=[O+][B-](F)(F)Oc3c2c(=O)oc2cc(N(CC)CC)ccc32)cc1 | 542 |
| CCCCCCCCCCCCC(CCCCCCCCCC)Cn1c2cc(/C=C/c3nc4ccccc4s3)c3cccc4c5cccc6c(/C=C/c7nc8ccccc8s7)cc1c(c65)c2c34 (stereo not given) | 517 |
| CCCCCCCC1=C(C)C(=O)n2c1cc1[nH]c(C(=O)OC)c(C)c1c2=O | 393 |
| CC(C)[Si]1(C(C)C)c2cc(C=O)ccc2-c2ccc(N(C)C)cc21 | 390 |
| Cc1cc(C)c(C2=C3C=c4c(c5ccc(C(C)(C)C)cc5c5cc(C(C)(C)C)ccc45)=[N+]3[B-](F)(F)n3c2cc2c4ccc(C(C)(C)C)cc4c4cc(C(C)(C)C)ccc4c23)c(C)c1 | 693 |
| Cc1ccc(C2=C3C=CC=[N+]3[B-](F)(F)n3cccc32)cc1 | 500.5 |
| [C-]#[N+]c1ccc(-c2ccc(N(C)C)cc2)cc1 | 325 |
| CC1=[N+]2C(=C(Oc3ccccc3)c3ccc(C)n3[B-]2(F)F)C=C1c1cc2n(c1)[B-](F)(F)[N+]1=CC=CC1=C2c1c(C)cc(C)cc1C | 582 |
| F[B-]1(F)n2cccc2C=C2C=CC=[N+]21 | 503.5 |
| F[B-]1(F)n2c(nc(-c3ccccc3)c2-c2ccccc2)-c2cccc[n+]21 | 429 |
| Cc1ccc2nc3c(nc2c1)c(-c1ccccc1)nn3C | 424 |
| COc1c(-c2ccc(N(C)C)cc2)oc2ccccc2c1=O | 361 |
| CN(C)c1ccc(/C=C/C=C2\CC/C(=C\C=C\c3ccc(N(C)C)cc3)C2=O)cc1 | 480 |
| C=Cc1ccc(OC)cc1 | 302 |
| C=Cc1cc(OC)cc(OC)c1 | 299 |
| Cc1cc(=O)oc2c3c4c(cc12)CCCN4CCC3 | 361 |
| CN(C)c1ccc(/C=C/C(=O)O)cc1 | 358 |

* * *

Measured absorption maximum, listed per entry.
- procedure.details: solvent given as SMILES
- recorded.conditions: in ClCCl

| compound | absorption maximum (nm) |
| --- | --- |
| COc1ccc(-c2c3cc4cc(C)sc4cc3c(-c3ccc(OC)cc3)c3cc4cc(C)sc4cc23)cc1 | 500 |
| CCCCCCOc1cc(/C=C/c2cc(OCCCCCC)c(/C=C/c3cc(OCCCCCC)c(C=C4C(=C(C#N)C#N)c5ccccc5C4=C(C#N)C#N)cc3OCCCCCC)cc2OCCCCCC)c(OCCCCCC)cc1C=C1C(=C(C#N)C#N)c2ccccc2C1=C(C#N)C#N | 640 |
| CC[n+]1c(C=C2C(=O)C(C=C3N(C)c4ccccc4C3(C)C)=C2[O-])sc2ccccc21 | 650 |
| CC1=CC(C)=[N+]2C1=C(c1ccccc1)c1c(C)c(-c3cccs3)c(C)n1[B-]2(F)F | 511 |
| [O-][n+]1c(/C=C/c2ccc(/C=C/c3ccccc3)cc2)nc(N2CCOCC2)c2c1CCCC2 | 406 |
| CCCCCCCCCCCCN1C(=O)c2c(c3ccc4cc(-c5ccc(-c6ccccc6)cc5)c(OC)cc4c3c3c2ccc2cc(-c4ccc(-c5ccccc5)cc4)c(OC)cc23)C1=O | 437 |
| CC(C)[Si](C#Cc1c2cc3ccccc3cc2c(C#Cc2ccccc2)c2cc3ccccc3cc12)(C(C)C)C(C)C | 652 |
| COc1ccc(-c2cc3c(s2)c(-c2ccccc2)cc(=O)n3C)cc1 | 386 |
| O=P1(c2ccccc2)C(c2ccc(N(c3ccccc3)c3ccccc3)cc2)=Cc2cc3ccccc3cc21 (stereo unspecified) | 414 |
| N#Cc1ccc(-n2c(-c3ccc(-c4ccc(-c5nc6c7ccccc7c7ccccc7c6n5-c5ccc(C#N)c6ccccc56)cc4)cc3)nc3c4ccccc4c4ccccc4c32)c2ccccc12 | 340 |
| CCC(CC)c1ccc2cc3c([o+]c2c1)/C(=C/Cc1ccccc1)CCC3 | 615 |
| CCN(CC)c1ccc2cc(/C(Cl)=C/C=C/C(=C(C#N)C#N)c3ccc4c(c3)c3ccccc3n4CC)c(=O)oc2c1 | 526 |
| CCN1c2ccc(/C=N/Nc3ccccn3)cc2Sc2cc(/C=N/Nc3ccccn3)ccc21 | 393 |
| c1ccc2c(c1)c1ccccc1c1ccccc21 | 286 |
| F[B-]1(F)n2cccc2C(c2c3ccccc3c(-c3ccccc3)c3ccccc23)=C2C=CC=[N+]21 | 506 |
| CCn1c2ccccc2c2cc(C#Cc3cc(C#Cc4ccc5c(c4)c4ccccc4n5CC)nc(OC)n3)ccc21 | 390 |
